Kindly state Test F rating (% disease control) for each of the entries shown.
Test system: Blumeria graminis f. sp. tritici
Assay: Test F: preventive spray on wheat seedlings, visual disease rating (wheat powdery mildew)
Assay type: in vivo
Conditions: asterisk: 40 ppm test suspension
Marks after values point to notes of the source that are not given here.

Query: Test F rating (% disease control); subject: C=CCOC(c1ccc(F)cc1Cl)c1c(C)nn(C)c1-c1c(F)cccc1F (stereo not drawn) [Compound 109]
97* %

Query: Test F rating (% disease control); subject: COc1cc(F)c(-c2c(C(O)c3ccc(F)cc3Cl)c(C)nn2C)c(F)c1 (stereo not drawn) [compound 171]
89* %

Query: Test F rating (% disease control); subject: Cc1nn(C)c(-c2c(F)cccc2F)c1C(F)c1ccc(Cl)cc1Cl (stereo not drawn) [Compound 92]
100* %

Query: Test F rating (% disease control); subject: Cc1nn(C)c(-c2c(F)cccc2F)c1C(OCC#N)c1ccc(F)cc1Cl (stereo not drawn) [Compound 107]
99* %

Query: Test F rating (% disease control); subject: Cc1nn(C)c(-c2ccc(F)cc2Cl)c1Nc1ccc(F)cc1F [compound 49]
87* %

Query: Test F rating (% disease control); subject: Cc1nn(C)c(-c2c(F)cccc2Cl)c1C(SC#N)c1ccc(F)cc1F (stereo not drawn) [Compound 122]
99* %

Query: Test F rating (% disease control); subject: Cc1nn(C)c(-c2c(F)cncc2F)c1C(O)c1ccc(F)cc1Cl (stereo not drawn) [compound 166]
93* %

Query: Test F rating (% disease control); subject: Cc1nn(C)c(-c2ccc(F)cc2I)c1C(O)c1ccc(F)cc1Cl (single isomer, unassigned) [compound 104]
72* %

Query: Test F rating (% disease control); subject: COc1nn(C)c(-c2c(F)cc(F)cc2F)c1C(O)c1c(F)cccc1Cl (stereo not drawn) [compound 155]
99* %

----------
System: Blumeria graminis f. sp. tritici
Experiment: Test F: preventive spray on wheat seedlings, visual disease rating (wheat powdery mildew)
Assay type: in vivo
Settings: no asterisk: standard test suspension, not 40 ppm
Kindly state Test F rating (% disease control) for each of the entries shown.
Returns: string containing the number followed by the unit.

Query: Test F rating (% disease control); subject: COc1nn(C)c(-c2c(F)cccc2F)c1C(O)c1ccc(F)cc1Cl (centres unmarked) [compound 126]
100%

Query: Test F rating (% disease control); subject: Cn1nc(Cl)c(C(O)c2ccc(F)cc2Cl)c1-c1c(F)cccc1F (centres unmarked) [compound 137]
100%

Query: Test F rating (% disease control); subject: Cc1nn(C)c(-c2c(Cl)cccc2Cl)c1C(O)c1ccc(F)cc1Cl (centres unmarked) [compound 69]
97%

Query: Test F rating (% disease control); subject: Cc1cc(C)n(-c2c(C(O)c3ccc(F)cc3C)c(C)nn2C)n1 (centres unmarked) [compound 158]
13%

Query: Test F rating (% disease control); subject: Cc1nn(C)c(-c2c(F)cccc2Br)c1C(O)c1ccc(F)cc1Cl (centres unmarked) [compound 94]
100%

----------
Test system: Puccinia recondite f. sp. tritici
Assay: Test E2: preventive spray on wheat seedlings, visual disease rating (wheat leaf rust)
Assay type: in vivo
Conditions: no asterisk: standard test suspension, not 40 ppm
Measured Metric: Test E2 rating (% disease control) (%)
Provide the reading as a plain figure in %.

Query: Test E2 rating (% disease control); subject: Cc1nn(C)c(-c2ccc(F)cc2I)c1C(O)c1ccc(F)cc1Cl (single isomer, unassigned)
96

Query: Test E2 rating (% disease control); subject: `Cc1nn(C)c(-c2ccc(C#N)cc2F)c1Oc1ccc(F)cc1F`
79

Query: Test E2 rating (% disease control); subject: Cc1nn(C)c(-c2c(F)cccc2Cl)c1C(O)c1ccc(F)cc1F (centres unmarked)
100

Query: Test E2 rating (% disease control); subject: Cc1nn(C)c(-c2c(F)cccc2F)c1C(O)c1ccc(F)cc1Cl (single isomer, unassigned) [compound 87]
99

Query: Test E2 rating (% disease control); subject: Cc1cc(F)ccc1C(O)c1c(C)nn(C)c1-n1ccnc1Cl (centres unmarked)
9

Query: Test E2 rating (% disease control); subject: Cc1cc(F)ccc1C(O)c1c(Br)nn(C)c1-c1c(F)cccc1F (centres unmarked)
100

Query: Test E2 rating (% disease control); subject: Cn1nc(Br)c(C(O)c2ccc(F)cc2Cl)c1-c1c(F)cccc1Cl (centres unmarked)
100

Query: Test E2 rating (% disease control); subject: Cc1nn(C)c(-c2c(F)cccc2F)c1C(F)c1ccc(F)cc1Cl (centres unmarked)
99

Query: Test E2 rating (% disease control); subject: Cc1nn(C)c(-c2c(F)cccc2Cl)c1C(O)c1ccc(C#N)cc1F (centres unmarked)
100

Query: Test E2 rating (% disease control); subject: Cc1nn(C)c(-c2ccc(Cl)cc2Cl)c1C(O)c1ccc(F)cc1F (centres unmarked)
100

Query: Test E2 rating (% disease control); subject: `Cc1nn(C)c(-c2c(F)cc(F)cc2F)c1C(=O)c1ccc(F)cc1F`
55

Query: Test E2 rating (% disease control); subject: Cc1nn(C)c(-c2ccc(F)cc2Br)c1C(O)c1c(F)cc(F)cc1F (centres unmarked)
100

Query: Test E2 rating (% disease control); subject: Cc1nn(C)c(-c2c(F)cccc2F)c1C(O)c1ccc(F)cc1Br (centres unmarked)
100

Query: Test E2 rating (% disease control); subject: COC(c1ccc(F)cc1Cl)c1c(C)nn(C)c1-c1c(F)cccc1Cl (centres unmarked)
90

----------
Test system: Puccinia recondite f. sp. tritici
Experiment: Test E2: preventive spray on wheat seedlings, visual disease rating (wheat leaf rust)
Type: in vivo
Details: no asterisk: standard test suspension, not 40 ppm
Measured Metric: Test E2 rating (% disease control) (%)
Provide the reading as a plain figure in %.

Query: Test E2 rating (% disease control); subject: Cc1nn(C)c(-c2ccc(Cl)cc2Cl)c1C(O)c1ccc(F)cc1Cl (stereo not drawn) [compound 100]
100

Query: Test E2 rating (% disease control); subject: Cc1nn(C)c(-n2ccnc2C)c1C(O)c1ccc(F)cc1F (stereo not drawn) [compound 146]
17

Query: Test E2 rating (% disease control); subject: Cc1nn(C)c(-c2ccccc2I)c1C(=O)c1ccc(F)cc1Br [compound 81]
0

----------
Test system: Septoria nodorum
Assay: Test C: preventive spray on wheat seedlings, visual disease rating (Septoria glume blotch)
Format: in vivo
Conditions: asterisk: 40 ppm test suspension
Marks after values point to notes of the source that are not given here.
Measured Metric: Test C rating (% disease control)

Query: Test C rating (% disease control); subject: Cc1nn(C)c(-c2c(F)cccc2Cl)c1C(O)c1ccc(Cl)cc1Cl (centres unmarked)
99* %

Query: Test C rating (% disease control); subject: Cn1nc(OC(F)F)c(C(O)c2ccc(F)cc2Cl)c1-c1c(F)cccc1F (centres unmarked)
0* %

Query: Test C rating (% disease control); subject: `Cc1nn(C)c(-c2ccc(F)cc2F)c1Nc1ccc(F)cc1Cl`
0* %

Query: Test C rating (% disease control); subject: COc1nn(C)c(-c2c(F)cc(F)cc2Cl)c1C(O)c1ccc(F)cc1Cl (centres unmarked)
97* %

Query: Test C rating (% disease control); subject: `Cc1nn(C)c(-c2ccc(F)cc2Cl)c1Nc1ccc(Cl)cc1F`
0* %

----------
Test system: Puccinia recondite f. sp. tritici
Test: Test E2: preventive spray on wheat seedlings, visual disease rating (wheat leaf rust)
Assay type: in vivo
Conditions: no asterisk: standard test suspension, not 40 ppm
Quick rule: Test E2 rating (% disease control) of at least 90% means Criterion met, below that means Criterion not met.

Test E2 rating (% disease control) >= 90% for Cn1nc(Br)c(C(O)c2ccc(F)cc2Cl)c1-c1ccc(F)cc1Cl (centres unmarked) [compound 125] ?
Criterion met

Test E2 rating (% disease control) >= 90% for Cc1nn(C)c(-c2c(F)cccc2F)c1Nc1ccc(F)cc1Cl [compound 50] ?
Criterion not met

Test E2 rating (% disease control) >= 90% for Cc1nn(C)c(-c2ccc(C#N)cc2Cl)c1Oc1ccc(F)cc1Cl [compound 36] ?
Criterion met

Test E2 rating (% disease control) >= 90% for Cc1nn(C)c(-c2c(Cl)cccc2Cl)c1C(O)c1ccc(F)cc1Cl (centres unmarked) [compound 69] ?
Criterion met

Test E2 rating (% disease control) >= 90% for Cc1nn(C)c(-c2c(F)cccc2Cl)c1C(=O)c1ccc(F)cc1F [compound 28] ?
Criterion not met

Test E2 rating (% disease control) >= 90% for Cc1cc(F)ccc1C(O)c1c(Br)nn(C)c1-c1c(F)cccc1Cl (centres unmarked) [compound 149] ?
Criterion met

Test E2 rating (% disease control) >= 90% for Cn1nc(Br)c(C(O)c2ccc(F)cc2F)c1-c1c(F)cccc1F (centres unmarked) [compound 124] ?
Criterion met

Test E2 rating (% disease control) >= 90% for Cn1nc(Br)c(C(O)c2ccc(F)cc2Br)c1-c1ccc(F)cc1Cl (centres unmarked) [compound 164] ?
Criterion met

Test E2 rating (% disease control) >= 90% for Cc1nn(C)c(-c2ccc(Cl)cc2Cl)c1C(O)c1ccc(Cl)cc1F (centres unmarked) [compound 101] ?
Criterion met

Test E2 rating (% disease control) >= 90% for Cc1nn(C)c(-c2c(F)cc(Br)cc2F)c1C(=O)c1ccc(F)cc1F [compound 102] ?
Criterion not met

Test E2 rating (% disease control) >= 90% for Cc1nn(C)c(-c2ccccc2I)c1C(O)c1ccc(F)cc1Br (centres unmarked) [compound 88] ?
Criterion not met

Test E2 rating (% disease control) >= 90% for Cc1nn(C)c(-c2c(F)cccc2F)c1C(=O)c1ccc(F)cc1F [compound 24] ?
Criterion not met

Test E2 rating (% disease control) >= 90% for COc1cc(F)c(C(O)c2c(C)nn(C)c2-c2c(F)cccc2F)c(F)c1 (centres unmarked) [compound 16] ?
Criterion met

Test E2 rating (% disease control) >= 90% for Cc1nn(C)c(-c2c(F)cc(Br)cc2F)c1C(O)c1ccc(F)cc1F (centres unmarked) [compound 106] ?
Criterion met

Test E2 rating (% disease control) >= 90% for Cn1nc(Cl)c(C(O)c2ccc(F)cc2Cl)c1-c1c(F)cccc1F (centres unmarked) [compound 137] ?
Criterion met

Test E2 rating (% disease control) >= 90% for Cc1cc(C)n(-c2c(C(O)c3ccc(F)cc3F)c(C)nn2C)n1 (centres unmarked) [compound 159] ?
Criterion not met

Test E2 rating (% disease control) >= 90% for Cn1nc(C#N)c(C(=O)c2ccc(F)cc2Cl)c1-c1c(F)cccc1F [Compound 52] ?
Criterion met
